# Test system: Enterococcus faecium
# test: Antibacterial activity assay (MIC, broth dilution)
# Assay type: cell-based
# conditionContext: Enterococcus faecium; Table 16; CLSI M07-A10 dilution method; read-out: MIC E. faecium

smilesCode | tgt | MIC [µg/mL]
CCN(CC)c1ccc(/C=C/c2cc(-c3ccc(Br)cc3Cl)cc(-c3ccc(Br)cc3)[n+]2C)cc1.[I-] | Enterococcus faecium | 1
CCN(CC)c1ccc(/C=C/c2cc(-c3ccc(Br)cc3)cc(-c3ccc(Br)cc3)[n+]2C)cc1.[I-] | Enterococcus faecium | 2
CN(CCO)c1ccc(/C=C/c2cc(-c3ccc(Br)cc3)cc(-c3ccc(Br)cc3)[n+]2C)cc1.[I-] | Enterococcus faecium | 8
Cc1ccc(-c2cc(-c3ccc(Br)cc3)cc(/C=C/c3ccc(N(C)C)cc3)[n+]2C)cc1C.[I-] | Enterococcus faecium | 4
Cc1ccc(-c2cc(-c3ccc(Cl)cc3)cc(/C=C/c3ccc(N(C)C)cc3)[n+]2C)cc1.[I-] | Enterococcus faecium | 2
CN(CCC#N)c1ccc(/C=C/c2cc(-c3ccc(Br)cc3Cl)cc(-c3ccc(Br)cc3)[n+]2C)cc1.[I-] | Enterococcus faecium | 4
